- method.notes: Cell Viability - LYMP2-012 (AID 982);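 also: cellular ATP by luciferase luminescence where a drop means cytotoxicity; cells exposed to compound for one day before reading; nearly all actives have a fitted effect of over 55% in size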
- test.context: LYMP2-012 lymphoblastoid cell viability qHTS; series mostly up to 92.2 µM
Results filed as inconclusive are left out. The source made the active and inactive calls. Calls follow the shape of the dose curve; as a rule, active = well fitted cell-killing curve with a large enough effect; inconclusive = small, poorly fitted or top-dose-only effect; inactive = flat fitted curve, though single readings scatter.
result.type: outcome

- CCOc1ccccc1C(N)=O: inactive
- C/C=C/c1ccc(O)c(OC)c1: inactive
- COc1cc([C@H]2Oc3cc([C@H]4Oc5cc(O)cc(O)c5C(=O)[C@@H]4O)ccc3O[C@@H]2CO)ccc1O: inactive
- CCCCC(CC)COC(=O)c1ccc(N(C)C)cc1 (stereo not given): inactive
- O=C(O)c1ccc(S(=O)(=O)N(Cl)Cl)cc1: inactive
